# assayed target: IRAK4 (Homo sapiens)
# Construct: purchased Eurofins Pharma Discovery Services (KinaseProfiler; Cerep BioPrint panel)
# Sequence (Q9NWZ3 1-460): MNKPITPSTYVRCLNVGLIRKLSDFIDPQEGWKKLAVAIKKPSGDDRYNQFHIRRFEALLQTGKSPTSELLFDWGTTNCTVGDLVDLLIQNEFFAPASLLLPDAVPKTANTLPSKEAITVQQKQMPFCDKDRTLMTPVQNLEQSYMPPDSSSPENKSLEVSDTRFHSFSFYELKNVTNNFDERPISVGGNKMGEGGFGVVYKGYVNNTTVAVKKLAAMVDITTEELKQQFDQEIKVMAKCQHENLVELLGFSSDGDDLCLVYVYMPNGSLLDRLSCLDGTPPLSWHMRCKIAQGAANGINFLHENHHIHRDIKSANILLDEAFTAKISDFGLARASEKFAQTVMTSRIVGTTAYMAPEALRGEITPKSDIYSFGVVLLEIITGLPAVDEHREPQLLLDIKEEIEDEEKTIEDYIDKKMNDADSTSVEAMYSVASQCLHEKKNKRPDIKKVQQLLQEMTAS
# protocol summary: kinase selectivity panel
# Type: biochemical
# cond: read-out: percentage of control activity (POC), IRAK4
Mark Criterion met only when remaining activity at 10 µM stays strictly below 90%. Values equal to the cut-off are Criterion not met.

Does the reported remaining activity at 10 µM of the following compound sit strictly below 90%? CC(C)(C)N1CCC(c2cc(-c3ccc(F)cc3Cl)c3cc[n+]([O-])c(-c4c(Cl)cccc4Cl)c3n2)CC1 [compound 2] Criterion not met

Input COc1c(NC(=O)c2ccc(C)c(-c3nnc4c(NCC(C)(C)C)nccn34)c2)cc(C(C)(C)C)cc1NS(C)(=O)=O [compound 7, reference compound] Criterion not met

Input CS(=O)(=O)N1CCN(c2ccc(Nc3ncc(C(N)=O)c(NC4CC4)n3)cc2)CC1 [compound 5] Criterion met

Input Cn1cc(-c2cccc(-c3nc(C(=O)NC4C5CC6CC4CC(O)(C6)C5)c(N)nc3N)c2)cn1 (centres unmarked) [compound 4] Criterion met
